target: CDK4/CycD1 (Homo sapiens (Human)); experiment: CDK4/CycD kinase assay (Assay 3); settings: read-out: CDK4/CycD (Assay 3) Concentration of the half-maximal inhibition of the enzyme activity, IC50
Sequence (P11802 whole entry): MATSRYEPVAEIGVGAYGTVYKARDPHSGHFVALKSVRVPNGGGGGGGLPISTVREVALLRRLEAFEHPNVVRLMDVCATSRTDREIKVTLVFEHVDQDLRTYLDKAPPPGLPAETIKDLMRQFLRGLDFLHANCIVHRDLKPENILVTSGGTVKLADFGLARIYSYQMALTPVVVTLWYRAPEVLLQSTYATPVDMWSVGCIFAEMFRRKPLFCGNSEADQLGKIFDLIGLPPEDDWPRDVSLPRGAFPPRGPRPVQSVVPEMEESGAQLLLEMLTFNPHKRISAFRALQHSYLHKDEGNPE
Sequence (P24385 whole entry partner): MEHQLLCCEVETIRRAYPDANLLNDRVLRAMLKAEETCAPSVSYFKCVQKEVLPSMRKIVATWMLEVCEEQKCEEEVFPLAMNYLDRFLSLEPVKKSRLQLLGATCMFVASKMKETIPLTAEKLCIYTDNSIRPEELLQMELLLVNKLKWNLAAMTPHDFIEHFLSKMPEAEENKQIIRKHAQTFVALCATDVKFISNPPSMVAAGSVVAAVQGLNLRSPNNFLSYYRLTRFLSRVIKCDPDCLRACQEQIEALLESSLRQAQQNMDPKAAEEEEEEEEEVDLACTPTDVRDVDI
Item-by-item account of pIC50
Kindly note that pIC50 refers to -log10 of the concentration in mol/L and answer with the value alone.

C[C@@H](Nc1nc(Nc2ccc(S(C)(=O)=O)cc2)ncc1C(F)(F)F)C(C)(C)O [C3, reference compound] = 7.62
C[C@@H](O)[C@@H](C)Nc1nc(Nc2ccc(S(=O)(=O)C3CC3)cc2)ncc1C(F)(F)F [C1, reference compound] = 7.28
C[C@@H](Oc1nc(Nc2ccc(S(C)(=O)=O)cc2)ncc1C(F)(F)F)C(C)(C)O [Example 3] = 7.11
C[C@@H](O)[C@@H](C)Oc1nc(Nc2ccc(S(C)(=O)=O)cc2)ncc1C(F)(F)F [Example 2] = 7.62
C[C@@H](O)[C@@H](C)Nc1nc(Nc2ccc(S(C)(=O)=O)cc2)ncc1C(F)(F)F [C2, reference compound] = 7.46

Ask: Entry under review: C[C@@H](O)[C@@H](C)Oc1nc(Nc2ccc(S(=O)(=O)C3CC3)cc2)ncc1C(F)(F)F [Example 1] . Reported pIC50?
Reply: 7.70
